Below, each entry is listed with its recorded log2 fold change.
Molecular target: ZMAT2 (UniProt Q96NC0)
Sequence (Q96NC0 whole entry, looked up): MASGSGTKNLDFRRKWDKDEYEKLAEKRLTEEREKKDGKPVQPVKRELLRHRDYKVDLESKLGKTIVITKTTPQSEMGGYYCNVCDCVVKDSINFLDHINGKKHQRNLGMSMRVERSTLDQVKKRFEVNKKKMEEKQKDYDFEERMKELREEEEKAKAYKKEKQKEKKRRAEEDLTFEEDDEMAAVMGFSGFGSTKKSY
Test: log2 fold change, soluble protein after heating vs DMSO (PISA); higher = thermal stabilisation; K562 cells, 10 uM, 30 min; active = over 0.2 and 3.5 SD of the protein, either way, in both replicates (recomputed)
Targets with a hit are over-represented here; the source holds about 7,900 in all. About 0.6% of all pairs of compound and target were hits.
metric: log2 fold change

Cc1ccc(NC(=O)c2cccc(C(C)(C)C#N)c2)cc1Nc1ccc2ncn(C)c(=O)c2c1 ... 0.209 (inactive)
COC(=O)N[C@@H](C)CNc1nccc(-c2cn(C(C)C)nc2-c2cc(Cl)cc(NS(C)(=O)=O)c2F)n1 [encorafenib] ... 0.106 (inactive)
C[C@@H](Oc1cc(-c2cnn(C3CCNCC3)c2)cnc1N)c1c(Cl)ccc(F)c1Cl [crizotinib] ... 0.098 (inactive)
Cn1cncc1[C@@](N)(c1ccc(Cl)cc1)c1ccc2c(c1)c(-c1cccc(Cl)c1)cc(=O)n2C [tipifarnib] ... -0.058 (inactive)
C/C(=N\NC(=O)c1cccc(S(=O)(=O)N2CCOCC2)c1)c1cc(Cl)ccc1O ... 0.001 (inactive)
CN1CCN(c2nc(C3=C(c4c[nH]c5ccccc45)C(=O)NC3=O)c3ccccc3n2)CC1 [sotrastaurin] ... -0.088 (inactive)
Fc1ccc(Cl)cc1-c1nc(Nc2ccncc2)c2nccnc2n1 ... 0.018 (inactive)
COc1ccc(Cn2ccc3ccc(C(=O)NO)cc32)cc1 ... 0.378 (active)

====

Biological target: YWHAZ (UniProt P63104)
Sequence (P63104 whole entry, looked up): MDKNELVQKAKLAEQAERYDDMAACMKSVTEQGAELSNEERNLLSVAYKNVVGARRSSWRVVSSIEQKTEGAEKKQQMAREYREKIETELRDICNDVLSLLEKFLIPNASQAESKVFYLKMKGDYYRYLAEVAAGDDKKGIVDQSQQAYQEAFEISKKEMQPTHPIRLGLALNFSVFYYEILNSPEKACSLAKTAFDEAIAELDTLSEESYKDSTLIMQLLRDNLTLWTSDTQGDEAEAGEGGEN
Assay: log2 fold change, soluble protein after heating vs DMSO (PISA); higher = thermal stabilisation; K562 cells, 10 uM, 30 min; active = over 0.2 and 3.5 SD of the protein, either way, in both replicates (recomputed)
The full data set covers some 7,900 targets. This sample favours those with a hit. About 0.6% of all pairs of compound and target were hits.
metric: log2 fold change

CNC(=O)c1ccc(Nc2ncc(C(F)(F)F)c(NCc3nccnc3N(C)S(C)(=O)=O)n2)cc1 ... 0
O=C(Nc1nc2ccccc2n1CCN1CCOCC1)c1cccc([N+](=O)[O-])c1 ... 0.105
Cc1ccc2c(=O)c3ccccc3n(CCCN)c2c1C ... -0.009
CC[C@@H]1C(=O)N(C)c2cnc(Nc3ccc(C(=O)NC4CCN(C)CC4)cc3OC)nc2N1C1CCCC1 ... -0.083

====

Molecular target: ZRANB2 (UniProt O95218)
Sequence (O95218 whole entry, looked up): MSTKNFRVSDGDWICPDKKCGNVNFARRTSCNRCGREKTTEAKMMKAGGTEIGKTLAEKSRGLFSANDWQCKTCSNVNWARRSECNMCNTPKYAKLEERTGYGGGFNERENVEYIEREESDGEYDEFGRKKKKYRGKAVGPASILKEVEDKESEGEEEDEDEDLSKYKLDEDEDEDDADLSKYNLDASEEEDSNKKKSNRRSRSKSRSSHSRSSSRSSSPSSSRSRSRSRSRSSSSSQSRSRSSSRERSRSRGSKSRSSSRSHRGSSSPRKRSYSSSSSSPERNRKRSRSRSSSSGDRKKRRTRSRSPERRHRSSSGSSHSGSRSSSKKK
Test: log2 fold change, soluble protein after heating vs DMSO (PISA); higher = thermal stabilisation; K562 cells, 10 uM, 30 min; active = over 0.2 and 3.5 SD of the protein, either way, in both replicates (recomputed)
Of roughly 7,900 targets only a part is listed; those with a hit were picked by preference. About 0.6% of all pairs of compound and target were hits.
The label depends only on log2 fold change: yes if it is at least 0, no if it is smaller.

Cc1ncc(-c2ccnc(Nc3ccc(S(C)(=O)=O)cc3)n2)n1C(C)C ... no
C=CC(=O)N1CCC[C@@H](n2nc(-c3ccc(Oc4ccccc4)cc3)c3c(N)ncnc32)C1 [ibrutinib] ... yes
COc1cc(Nc2ncc3c(n2)-c2ccc(Cl)cc2C(c2c(F)cccc2OC)=NC3)ccc1C(=O)O [alisertib] ... no
C[C@@H](N)c1ccc(C(=O)Nc2ccnc3[nH]ccc23)cc1 ... no
NC1(c2ccc(-c3nc4ccn5c(=O)[nH]nc5c4cc3-c3ccccc3)cc2)CCC1 ... yes
c1cc(OCCN2CCCCC2)cc(-c2n[nH]c3ccc(-c4nnc[nH]4)cc23)c1 ... yes
COC(=O)[C@H](CCSC)NC(=O)c1ccc(NC[C@@H](N)CS)cc1-c1ccccc1 ... yes
CCCS(=O)(=O)Nc1ccc(F)c(C(=O)c2c[nH]c3ncc(Cl)cc23)c1F ... no

====

Biological target: YIPF6 (UniProt Q96EC8)
Sequence (Q96EC8 whole entry, looked up): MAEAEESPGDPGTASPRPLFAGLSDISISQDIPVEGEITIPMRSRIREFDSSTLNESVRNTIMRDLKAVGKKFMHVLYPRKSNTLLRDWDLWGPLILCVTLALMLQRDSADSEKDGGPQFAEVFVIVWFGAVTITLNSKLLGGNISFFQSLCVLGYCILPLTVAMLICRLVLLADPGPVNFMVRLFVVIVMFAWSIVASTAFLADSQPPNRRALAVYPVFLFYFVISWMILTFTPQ
Experiment: log2 fold change, soluble protein after heating vs DMSO (PISA); higher = thermal stabilisation; K562 cells, 10 uM, 30 min; active = over 0.2 and 3.5 SD of the protein, either way, in both replicates (recomputed)
Targets with a hit are over-represented here; the source holds about 7,900 in all. About 0.6% of all pairs of compound and target were hits.
The label depends only on log2 fold change: satisfied if it is at least 0.02, not satisfied if it is smaller.

O=C1c2ccccc2-c2n[nH]c3cccc1c23 ... not satisfied
Cc1ccc(-n2nc(C(C)(C)C)cc2NC(=O)Nc2ccc(OCCN3CCOCC3)c3ccccc23)cc1 ... not satisfied
CC(C)(O)CC(=O)NCCn1ccc2ncnc(Nc3ccc(Oc4cccc(C(F)(F)F)c4)c(Cl)c3)c21 ... not satisfied
O=C(CCCCCCC(=O)Nc1ccccc1)NO ... not satisfied
CC(C)c1cnn2c(NCc3ccccc3)cc(NCCCCCCN)nc12 ... not satisfied
COc1cc2nc(-c3cc(F)ccc3O)nc(N[C@@H]3CNC[C@H]3C(C)(C)O)c2cc1OC ... satisfied
COc1ccc(Cn2ccc3ccc(C(=O)NO)cc32)cc1 ... not satisfied
Fc1ccc(Cl)cc1-c1nc(Nc2ccncc2)c2nccnc2n1 ... satisfied

====

Target: ZDHHC20 (UniProt Q5W0Z9)
Sequence (Q5W0Z9 whole entry, looked up): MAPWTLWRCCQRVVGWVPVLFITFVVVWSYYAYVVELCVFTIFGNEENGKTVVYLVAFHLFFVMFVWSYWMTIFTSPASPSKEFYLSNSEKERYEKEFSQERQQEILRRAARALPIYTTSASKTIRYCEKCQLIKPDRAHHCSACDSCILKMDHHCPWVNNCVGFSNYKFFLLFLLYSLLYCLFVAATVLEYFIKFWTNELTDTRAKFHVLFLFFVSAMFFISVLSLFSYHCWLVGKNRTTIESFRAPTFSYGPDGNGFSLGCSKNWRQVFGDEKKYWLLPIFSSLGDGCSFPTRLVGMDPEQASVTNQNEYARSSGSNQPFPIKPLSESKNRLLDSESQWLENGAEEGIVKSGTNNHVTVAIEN
Assay: log2 fold change, soluble protein after heating vs DMSO (PISA); higher = thermal stabilisation; K562 cells, 10 uM, 30 min; active = over 0.2 and 3.5 SD of the protein, either way, in both replicates (recomputed)
About 7,900 targets were measured; listed, in parts, are those with a hit and a random draw of the rest. About 0.6% of all pairs of compound and target were hits.
metric: log2 fold change

Cc1nc(Nc2n[nH]c3c2CN(C(=O)N[C@H](CN(C)C)c2ccccc2)C3(C)C)c2sccc2n1 ... -0.02
O=C(Nc1cccc(Nc2ncc(Br)c(NCCc3cnc[nH]3)n2)c1)N1CCCC1 ... -0.025
COc1cccc2cc(-c3nc([C@H]4CC[C@H](C(=O)O)CC4)n4ncnc(N)c34)[nH]c12 ... 0.11
NC(=O)c1ccc2nc(-c3ccc(Oc4ccc(Cl)cc4)cc3)[nH]c2c1 ... 0.14
Cc1cc(Nc2cc(N3CCN(C)CC3)nc(Sc3ccc(NC(=O)C4CC4)cc3)n2)n[nH]1 [tozasertib] ... 0.006
NC1(Cc2ccc(Cl)cc2)CCN(c2ncnc3[nH]ccc23)CC1 ... 0.059
CN1CCC(CNc2ccc3ncc(-c4cccc(OC(F)(F)F)c4)n3n2)CC1 ... 0.035

====

Biological target: ZNF277 (UniProt Q9NRM2)
Sequence (Q9NRM2 whole entry, looked up): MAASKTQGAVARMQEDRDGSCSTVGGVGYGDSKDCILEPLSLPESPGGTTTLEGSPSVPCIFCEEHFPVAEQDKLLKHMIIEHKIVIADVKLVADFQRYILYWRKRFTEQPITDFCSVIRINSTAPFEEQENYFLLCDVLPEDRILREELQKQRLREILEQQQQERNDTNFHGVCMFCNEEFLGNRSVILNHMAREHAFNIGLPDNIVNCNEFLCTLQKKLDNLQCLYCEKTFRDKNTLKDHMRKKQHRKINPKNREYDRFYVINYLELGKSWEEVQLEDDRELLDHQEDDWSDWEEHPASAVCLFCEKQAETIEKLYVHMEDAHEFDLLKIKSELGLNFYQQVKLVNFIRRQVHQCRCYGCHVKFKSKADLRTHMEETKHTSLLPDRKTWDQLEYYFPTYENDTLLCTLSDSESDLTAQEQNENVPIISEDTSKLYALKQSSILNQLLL
Test: log2 fold change, soluble protein after heating vs DMSO (PISA); higher = thermal stabilisation; K562 cells, 10 uM, 30 min; active = over 0.2 and 3.5 SD of the protein, either way, in both replicates (recomputed)
Of roughly 7,900 targets only a part is listed; those with a hit were picked by preference. About 0.6% of all pairs of compound and target were hits.
metric: log2 fold change

CN1CCN(CCOc2cc(OC3CCOCC3)c3c(Nc4c(Cl)ccc5c4OCO5)ncnc3c2)CC1 [saracatinib] ... -0.276
C/C(=N\NC(=O)c1cccc(S(=O)(=O)N2CCOCC2)c1)c1cc(Cl)ccc1O ... -0.031
C[C@H](Nc1ncnc2nc[nH]c12)c1cc2cccc(Cl)c2c(=O)n1-c1ccccc1 [duvelisib] ... -0.107
CC[C@@H]1C(=O)N(C)c2cnc(Nc3ccc(C(=O)N[C@H]4CC[C@H](N5CCN(CC6CC6)CC5)CC4)cc3OC)nc2N1C(C)C [volasertib] ... -0.017
COc1cc(C(=O)O)ccc1NC(=O)[C@@H]1N[C@@H](CC(C)(C)C)[C@](C#N)(c2ccc(Cl)cc2F)[C@H]1c1cccc(Cl)c1F [idasanutlin] ... -0.003
O=C(CCCCCCC(=O)Nc1ccccc1)NO [vorinostat] ... -0.022
NCC(=O)Nc1ccc(-n2nc(C(F)(F)F)cc2-c2ccc3c(ccc4ccccc43)c2)cc1 ... -0.148
CNC(=O)c1ccccc1Nc1nc(Nc2ccc(N3CCOCC3)cc2OC)ncc1Cl ... 0.009

====

Target: ZNF143 (UniProt P52747)
Sequence (P52747 whole entry, looked up): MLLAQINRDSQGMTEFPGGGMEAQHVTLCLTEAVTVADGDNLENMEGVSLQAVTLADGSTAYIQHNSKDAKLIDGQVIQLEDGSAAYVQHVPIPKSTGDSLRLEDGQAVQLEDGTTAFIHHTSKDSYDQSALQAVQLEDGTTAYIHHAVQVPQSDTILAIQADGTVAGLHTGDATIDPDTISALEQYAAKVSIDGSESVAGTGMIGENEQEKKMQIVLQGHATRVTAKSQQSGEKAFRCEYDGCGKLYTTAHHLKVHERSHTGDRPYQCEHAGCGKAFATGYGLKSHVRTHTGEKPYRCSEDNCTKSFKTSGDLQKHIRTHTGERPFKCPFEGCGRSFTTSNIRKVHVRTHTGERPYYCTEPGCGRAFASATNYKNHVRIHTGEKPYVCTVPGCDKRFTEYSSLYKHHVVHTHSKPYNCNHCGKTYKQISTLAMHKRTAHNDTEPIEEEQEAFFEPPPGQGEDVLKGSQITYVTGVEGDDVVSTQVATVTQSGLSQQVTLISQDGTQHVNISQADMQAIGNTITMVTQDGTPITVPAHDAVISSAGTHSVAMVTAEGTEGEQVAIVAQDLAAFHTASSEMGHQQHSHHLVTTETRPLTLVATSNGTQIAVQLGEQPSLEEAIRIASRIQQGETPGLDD
Assay: log2 fold change, soluble protein after heating vs DMSO (PISA); higher = thermal stabilisation; K562 cells, 10 uM, 30 min; active = over 0.2 and 3.5 SD of the protein, either way, in both replicates (recomputed)
Targets with a hit are over-represented here; the source holds about 7,900 in all. About 0.6% of all pairs of compound and target were hits.
Below, each entry is listed with its recorded log2 fold change.
metric: log2 fold change

Cc1cc(Nc2cc(CN3CCOCC3)c3nc(C)c(Cc4ccc(Cl)cc4F)n3n2)n[nH]1 ... 0.025 (inactive)
FC(F)(F)c1ccc(/C=C/c2nc(COc3ccc(CCCCn4ccnn4)cc3)co2)cc1 ... 0.094 (inactive)
c1cn2cc(-c3ccc4cn[nH]c4c3)nc(Nc3ccc(N4CCOCC4)cc3)c2n1 ... 0.015 (inactive)
Cn1cc(-c2ccc3c(c2)CCN3C(=O)Cc2cccc(C(F)(F)F)c2)c2c(N)ncnc21 ... -0.129 (inactive)
C/C(=N\NC(=O)c1cccc(S(=O)(=O)N2CCOCC2)c1)c1cc(Cl)ccc1O ... 0.127 (inactive)
Cn1cc(-c2ccc3nnc(C(F)(F)c4ccc5ncccc5c4)n3n2)cn1 ... 0.041 (inactive)
c1cc(OCCN2CCCCC2)cc(-c2n[nH]c3ccc(-c4nnc[nH]4)cc23)c1 ... -0.06 (inactive)
CC[C@H](C)n1cc(C)c2c(C(=O)NCc3c(C)cc(C)[nH]c3=O)cc(-c3ccc(N4CCNCC4)nc3)cc21 ... 0.068 (inactive)
